Item-by-item account of sweetness intensity
assay: Sensory evaluation of sweetness intensity in RebM solution (Experimental Examples 20-21); conditions: acid added alone at 1000 ppb
The reply should be a number in points, with the unit left off.

Before answering, review these 3 worked examples.
1. CCCCCCCCC(=O)O [nonanoic acid] = 4.8
2. CCCCCCCC(=O)O [octanoic acid] = 4.4
3. CCCCCCCCCCCC(=O)O [dodecanoic acid] = 4.7

Now, please, on to the next molecule.
// field: sweetness intensity; key: CCCCCCCCCCC(=O)O [undecanoic acid] ; value = 4.4

###

assay: Sensory evaluation of sweetness intensity in aspartame solution, four reference samples (Experimental Example 22); details: acid added alone at 0.001 ppb
reported_endpoint: sweetness intensity (points)
The reply should be a number in points, with the unit left off.

Before answering, review these 2 worked examples.
1) CCCCCCCCCCCC(=O)O = 1.7
2) CCCCCCCCCCC(=O)O = 1.3

// field: sweetness intensity; key: CCCCCCCCC(=O)O ; value = 0.8

// field: sweetness intensity; key: CCCCCCCC(=O)O ; value = 0.6

###

experiment: Sensory evaluation of sweetness intensity in RebA solution, four reference samples (Experimental Examples 17-19); conditions: acid added alone at 1 ppb
reported_endpoint: sweetness intensity (points)
The reply should be a number in points, with the unit left off.

Before answering, review these 3 worked examples.
1. CCCCCCCC(=O)O = 1.3
2. CCCCCCCCCCCC(=O)O = 4.2
3. CCCCCCCCC(=O)O = 2.8

Now, please, on to the next compound.
// field: sweetness intensity; key: CCCCCCCCCCC(=O)O ; value = 4.5

###

Item-by-item account of sweetness intensity
test: Sensory evaluation of sweetness intensity in aspartame solution, four reference samples (Experimental Example 22); details: acid added alone at 0.1 ppb
The reply should be a number in points, with the unit left off.

Before answering, review these 2 worked examples.
1. CCCCCCCCCCCC(=O)O [dodecanoic acid] = 2.7
2. CCCCCCCCCCC(=O)O [undecanoic acid] = 2.8

// field: sweetness intensity; key: CCCCCCCC(=O)O [octanoic acid] ; value = 2.2

// field: sweetness intensity; key: CCCCCCCCC(=O)O [nonanoic acid] ; value = 2.7

###

Item-by-item account of sweetness intensity
assay: Sensory evaluation of sweetness intensity in sucralose solution (Experimental Examples 23-24); conditions: added alone at 0.01 ppb to 0.0140 wt % sucralose solution; average score
The number alone won't do; follow it with the unit.

Before answering, review these 3 worked examples.
1) CCCCCCCC(=O)O = 1.3 points
2) CCCCCCCCCCCC(=O)O = 1.6 points
3) CCCCCCCCCCC(=O)O = 1.3 points

// field: sweetness intensity; key: CCCCCCCCC(=O)O ; value = 1.8 points

###

experiment: Sensory evaluation of sweetness intensity in RebA solution, four reference samples (Experimental Examples 17-19); conditions: acid added alone at 10 ppb
Item-by-item account of sweetness intensity

Before answering, review these 2 worked examples.
1) CCCCCCCCCCCC(=O)O = 5.0 points
2) CCCCCCCCC(=O)O = 3.3 points

// field: sweetness intensity; key: CCCCCCCCCCC(=O)O ; value = 5.4 points

// field: sweetness intensity; key: CCCCCCCC(=O)O ; value = 2.0 points
